Tested on: HepG2
assayComment: GSK_TCMDC: Percent inhibition of human HepG2 cell line. Test compounds present at 10uM.
Type: functional
# Lookup of reported Inhibition keyed by entry

Below are worked cases with known answers.
>>> df
                                   compound  testedtarget  experimentalreadout  observedmeasurement
0  Cc1cc(=O)[nH]c2cc(Nc3ccnc(Nc4cccc(C(N)=O)c4)n3)ccc12.Cl         HepG2           Inhibition                  27%
1  CC(Oc1ccc(Cl)cc1)C(=O)Nc1cc(C(F)(F)F)ccc1N1CCOCC1 (stereo not given)         HepG2           Inhibition                  14%
2  CCOC(=O)C1=C(C)NC2=C(C(=O)CCC2)C1c1cn(Cc2ccc(Cl)cc2Cl)nc1-c1ccccc1 (stereo not given)         HepG2           Inhibition                   0%
3       Cl.Oc1ccccc1CNCC12CC3CC(CC(C3)C1)C2         HepG2           Inhibition                   0%

Looking up "Cc1ccc2[nH]c(-c3cc(-c4ccc(CO)cc4)cnc3N)nc2c1.O=C(O)C(F)(F)F" , I found its Inhibition recorded as 52%

* * *

Test system: Plasmodium falciparum
assayComment: GSK_TCMDC: Inhibition of Plasmodium falciparum 3D7 in whole red blood cells, using parasite LDH activity as an index of growth. Test compounds present at 2uM
Assay type: functional
Known Inhibition of a selection of molecules
Just the number in %, nothing appended.

                                   molecule  observedmeasurement
0  CC(CN(C)C)C(=O)Nc1ccc(-c2ccc(-c3nc4ccccc4[nH]3)cc2)cc1 (centres undefined)                   99
1   Cc1ccc(/C=C2/SC(=Nc3ccccc3)NC2=O)c(C)c1                   93
2  Cn1ccnc1-c1nc2ccccn2c1NCC(=O)Nc1ccccc1N1CCCCC1                   85
3  CC(C)c1cc(N)c2cc(NC(=O)COCC(=O)Nc3ccc4nc(C(C)C)cc(N)c4c3)ccc2n1                   95
4  O=C(O)C(F)(F)F.OCCN1CCN(Cc2ccc(-c3ccc(-c4nc5ccccc5[nH]4)cc3)cc2)CC1                  100

Summary: O=C1CCCC1Sc1nc2ccccc2c(=O)n1-c1ccc(Cl)c(Cl)c1 (centres undefined) , Plasmodium falciparum, Inhibition = 97

// assay Plasmodium falciparum, entry "CCCCCCCOc1ccc(NC(=O)Nc2ccc(Cn3ncc(N4CCCNCC4)c(Cl)c3=O)cc2)cc1.O=C(O)C(F)(F)F" , Inhibition value = 87

Item "COc1cc2nc(N3CCC(CCCC4CCNCC4)CC3)nc(NCc3ccccn3)c2cc1OC.O=C(O)C(F)(F)F" ; assay system Plasmodium falciparum; Inhibition reported as 100

Readout Inhibition for "Cn1c(N)cc(-c2ccc(Br)cc2)c2c(=O)nc(N)nc1-2" , test system Plasmodium falciparum, was 80

* * *

Tested on: Plasmodium falciparum
assayComment: GSK_TCMDC: Inhibition of Plasmodium falciparum Dd2 in whole red blood cells, using parasite LDH activity as an index of growth. Test compounds present at 2uM
Type: functional
Consider the following compounds and their measured Inhibition readings.
Could you give me the number in %? Just the number is fine.

>>> df
                                   compound           testedtarget  observedmeasurement
0  Cc1sc(C)c(C(F)(F)F)c1CNCCCNc1cc(=O)c2ccccc2[nH]1.Cl  Plasmodium falciparum                   43
1  CN1CCC(NCc2ccc(-c3cccc(S(=O)(=O)NCCc4ccccn4)c3)cc2)CC1.O=C(O)C(F)(F)F  Plasmodium falciparum                    0
2  COc1ccc(NC(=O)NC2CCN(c3ccnc4cc(Cl)ccc34)C2)cc1.O=C(O)C(F)(F)F (stereo not given)  Plasmodium falciparum                   69
3  Cc1cc(CNC(c2ccccc2)C2CCC2)cc(C)c1O (stereo not given)  Plasmodium falciparum                   48

Summary: "CCNc1cc(C(=O)N[C@@H](Cc2ccccc2)[C@H](O)CNC2(C(C)C)CCC2)cc(N2CCCCS2(=O)=O)c1.Cl" , Plasmodium falciparum, Inhibition = 85

* * *

Tested on: Plasmodium falciparum
assayComment: GSK_TCMDC: Inhibition of Plasmodium falciparum Dd2 in whole red blood cells, using parasite LDH activity as an index of growth. Test compounds present at 2uM
Assay type: functional
As shown below, each of these molecules has a reported Inhibition value.

Recorded results for 2 molecules are shown here.
>>> df
                                   molecule  observedmeasurement
0  COc1cccc(CN2Cc3ccccc3OC3(CCN(Cc4c[nH]c5cnccc45)CC3)C2)c1.O=C(O)C(F)(F)F                  83%
1  CN(C)c1c(CNCCCCCCNCc2ccc3ccccc3c2N(C)C)ccc2ccccc12.CS(=O)(=O)O                  51%

Lab note: measured Inhibition of COc1cc(/C=C/C(=O)NCC(CCNc2cc(=O)c3ccccc3[nH]2)NCc2cc(Br)cc(Br)c2)cc(OC)c1 (stereo not drawn) was 28%

The molecule identified as "CSc1ccc(CN2CCC(NC(=O)c3ccc(-c4ccc(N(C)C)cc4)s3)CC2)cc1.O=C(O)C(F)(F)F" registered its Inhibition at 26%

Please fill in: Inhibition reported for "Fc1ccc(-c2csc3ncnc(Cl)c23)cc1" = 95%

Form: molecule = "C=CCN1C(=O)C(=Cc2cc(Br)ccc2O)SC1=Nc1ccccc1" ; Inhibition = 55%

The molecule listed as "O=C(/C=C/c1ccc(Cl)c(Cl)c1)NCCCCCN1CCC(NC(=O)Nc2cc(Cl)ccc2Cl)CC1" shows Inhibition equal to 31%

Lab note: measured Inhibition of "COc1ccc(CNCc2ccsc2)cc1-c1ccc(OC)c(S(=O)(=O)NCCN2CCCC2)c1.O=C(O)C(F)(F)F" was 62%

The molecule identified as "Cc1cc(N(C)C)nc(Nc2ccc(NC(=O)c3ccc(Br)o3)cc2)n1" registered its Inhibition at 57%

Lab note: measured Inhibition of "Cc1cc(C)cc(N2C(N)=NC(N)=NC2(C)C)c1.Cl" was 6%

Memo: "CCCCCCN1CCCN(Cc2ccc(C(=O)Nc3ccc(F)c(F)c3)cc2)CC1.O=C(O)C(F)(F)F" , reported Inhibition: 48%

# molecule "O=C(Nc1ccc(Cl)cc1)c1ccc(S(=O)(=O)NCC2CCN(CC3CCCCC3)CC2)cc1.O=C(O)C(F)(F)F" ; its Inhibition = 8%

Entry "O=C(c1ccco1)N1CCN(c2ccc([N+](=O)[O-])c(NC3CC3)c2)CC1" — recorded Inhibition = 99%

Per the records, this molecule ( "Cc1ccc(S(=O)(=O)N2CCCN(C(=O)c3cc(-c4ccccc4)[nH]n3)CC2)cc1" ) has Inhibition equal to 93%

Entry "Cc1cnc(C(=O)Nc2cccc(-c3cccc(-c4nc5cccc(C)c5[nH]4)c3)c2)cn1" ; Inhibition = 45%

Form: molecule = "Cn1nc(C(F)(F)F)c(-c2ccc(Br)cc2)c1NC(=O)Cc1ccccc1F" ; Inhibition = 100%

"O=C(O)C(F)(F)F.c1ccc(CCNCc2cccc(-c3ccccc3CNCc3ccc4c(c3)OCO4)c2)nc1" yielded Inhibition of 80%

Inhibition reading for "CC(=O)N[C@H](C(=O)Nc1ccc(-c2ccc(-c3nc4cc(C(F)(F)F)ccc4[nH]3)s2)cc1)C(C)C" : 61%

* * *

Test system: Plasmodium falciparum
assayComment: GSK_TCMDC: Inhibition of Plasmodium falciparum 3D7 in whole red blood cells, using parasite LDH activity as an index of growth. Test compounds present at 2uM
Type: functional
The reader will find reported Inhibition values listed item by item below.
Report the figure along with its unit, number first.

// known answers, use as guide
compound	testedTarget	observedMeasurement
CC(C)(C)NS(=O)(=O)c1cc(C(=O)N2CCC(CCN3CCC(C(=O)c4ccc(F)cc4)CC3)(c3cccc(F)c3)CC2)c(Cl)cc1F	Plasmodium falciparum	99%
COc1cccc2cc(C(=O)N[C@@H](CC(C)C)C(=O)N[C@H](C=NNC(=O)OC(C)(C)C)Cc3ccccc3)oc12	Plasmodium falciparum	99%
CO/N=C(\C)c1ccc2c(c1)CCN(CCC1CCC(NC(=O)c3cccc(-c4noc(C)n4)c3)CC1)CC2.Cl (configuration not stated)	Plasmodium falciparum	90%
CSc1cccc(Nc2nc3ccc(S(=O)(=O)NCC(C)C)cc3n2C(C)C(C)C)c1 (configuration not stated)	Plasmodium falciparum	93%
COc1ccccc1COc1c(C)nc(N)nc1N.Cl	Plasmodium falciparum	98%
O=C(NC1CCCCC1)N(Cc1ccc(-c2cccc(CNC3CCCC3)c2)cc1)C1CCN(Cc2ccccc2)CC1.O=C(O)C(F)(F)F	Plasmodium falciparum	95%
Cc1cccc2nc(-c3cccc(-c4ccc(NC(=O)c5ccc(=O)[nH]n5)cc4)c3)[nH]c12	Plasmodium falciparum	100%
COc1ccc2nc3ccccc3c(NCCN3CCN(C)CC3)c2c1	Plasmodium falciparum	81%

Plasmodium falciparum Inhibition of "O=C(/C=C/c1ccc(Cl)c(Cl)c1)NCCCCCCN1CCN(C(=O)Nc2ccc(OC(F)F)cc2)CC1" is 91%

Item: "O=C(c1ccco1)N1CCN(c2nc(-c3ccc(Cl)cc3)nc3ccccc23)CC1" | System: Plasmodium falciparum | Inhibition: 96%

Fill in: Plasmodium falciparum Inhibition for "Cl.OCC(CO)(CO)NCc1ccc2c3c(cccc13)-c1ccccc1-2" = 87%

The recorded Inhibition with Plasmodium falciparum for CC1CN(c2ccc(NC(=O)c3cccs3)cc2)CCN1Cc1cccc(F)c1.O=C(O)C(F)(F)F (configuration not stated) was 96%

Observed Inhibition, Plasmodium falciparum, CCC(C)NC(=O)Cn1c2ncccc2c(=O)n1-c1ccc(C)cc1 (configuration not stated) : 95%

Bench note, Plasmodium falciparum: "Cc1cccc(C)c1CNc1cccc(-c2nc(C)c(C)[nH]2)c1.Cl" , Inhibition reads 99%

Fill in: Plasmodium falciparum Inhibition for "CCNCc1ccc(-c2cccc(-c3nc4ccccc4[nH]3)c2)cc1.O=C(O)C(F)(F)F" = 100%

Record "CS(=O)(=O)CCNCc1nc(-c2ccc3c(Nc4ccc(F)c(O)c4)ccnc3c2)cs1" / Plasmodium falciparum, Inhibition recorded as 95%

Entry "CCOC(=O)c1cnc2c(OC)cc(OC)c(Cl)c2c1Nc1ccccc1" , tested on Plasmodium falciparum, has a reported Inhibition of 99%

The observed Inhibition for "COc1ccc2[nH]ccc(=NN=Cc3ccncc3)c2c1" when tested with Plasmodium falciparum stands at 99%

Form field Inhibition for item "COc1ccc2nccc([C@@H](O)CN3CCC(NC(=O)c4ccc(OC)c(N)c4)CC3)c2c1.CS(=O)(=O)O" on Plasmodium falciparum: 93%
